- experimentalTarget: Epidermal growth factor receptor (Homo sapiens)
- assayName: Tested for inhibitory activity against Epidermal growth factor receptor
valueKind: pIC50
// returns pIC50 (minus log10 of molar concentration), number only

For `CN(C)C(=O)CN1CCC(n2cc(-c3cccc(O)c3)c3c(N)ncnc32)CC1` the molecule record lists pIC50 as 6.40

For `COC(=O)CN1CCC(n2cc(-c3cccc(O)c3)c3c(N)ncnc32)CC1` the molecule record lists pIC50 as 6.54

For `COc1cccc(-c2cn(C3CCN(CCN(C)CCO)CC3)c3ncnc(N)c23)c1` the molecule record lists pIC50 as 6.47
